Molecular target: T1, recombinant purified human IL-12 p70 (human, UniProt P29459 23-219)
T1 construct: Disulfide-linked heterodimer of p35 and p40; also called hIL-12; Hu IL-12
T1 sequence 1: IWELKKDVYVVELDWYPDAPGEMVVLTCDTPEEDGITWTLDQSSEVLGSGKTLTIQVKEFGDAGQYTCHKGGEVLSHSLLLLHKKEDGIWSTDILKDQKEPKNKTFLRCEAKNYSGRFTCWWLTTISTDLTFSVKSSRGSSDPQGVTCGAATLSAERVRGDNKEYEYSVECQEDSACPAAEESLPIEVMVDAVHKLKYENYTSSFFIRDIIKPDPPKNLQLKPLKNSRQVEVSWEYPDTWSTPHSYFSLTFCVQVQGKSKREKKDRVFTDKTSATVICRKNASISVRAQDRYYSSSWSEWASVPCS
T1 sequence 2: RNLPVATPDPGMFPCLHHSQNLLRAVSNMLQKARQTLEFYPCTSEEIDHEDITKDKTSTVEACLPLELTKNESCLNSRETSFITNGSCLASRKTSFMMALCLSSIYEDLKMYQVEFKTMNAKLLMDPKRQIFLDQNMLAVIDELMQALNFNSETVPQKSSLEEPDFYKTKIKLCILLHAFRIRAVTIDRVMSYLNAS
Test: SPR (BIAcore) as in Example 1.1.B, human IL-12p70
observation type: Kd

What value of Kd has been recorded for this entry: anti-IL-12p40 humanized antibody 1D4.8 (antibody, human IgG1, kappa, L234A L235A, V domains shown, Back-mutated CDR-grafted antibody; COS cells) VH: EVTLRESGPALVKPTQTLTLTCTFSGFSLRKSVMGVSWIRQPPGKALEWLAHIYWDDDKYYNPSLKSRLTISKDTSKNQVVLTMTNMDPVDTATYYCTRRGIRSAMDYWGQGTTVTVSS VL: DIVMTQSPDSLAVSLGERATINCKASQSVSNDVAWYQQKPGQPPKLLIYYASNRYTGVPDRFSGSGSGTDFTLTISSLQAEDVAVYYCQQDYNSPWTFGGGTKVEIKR
< 0.01 nM
